Each entry below lists one item and its recorded ADCC reporter EC50 value.
# Study target: T1, human LIV-1 (human, UniProt Q13433 29-755)
# T1 sequence (looked up): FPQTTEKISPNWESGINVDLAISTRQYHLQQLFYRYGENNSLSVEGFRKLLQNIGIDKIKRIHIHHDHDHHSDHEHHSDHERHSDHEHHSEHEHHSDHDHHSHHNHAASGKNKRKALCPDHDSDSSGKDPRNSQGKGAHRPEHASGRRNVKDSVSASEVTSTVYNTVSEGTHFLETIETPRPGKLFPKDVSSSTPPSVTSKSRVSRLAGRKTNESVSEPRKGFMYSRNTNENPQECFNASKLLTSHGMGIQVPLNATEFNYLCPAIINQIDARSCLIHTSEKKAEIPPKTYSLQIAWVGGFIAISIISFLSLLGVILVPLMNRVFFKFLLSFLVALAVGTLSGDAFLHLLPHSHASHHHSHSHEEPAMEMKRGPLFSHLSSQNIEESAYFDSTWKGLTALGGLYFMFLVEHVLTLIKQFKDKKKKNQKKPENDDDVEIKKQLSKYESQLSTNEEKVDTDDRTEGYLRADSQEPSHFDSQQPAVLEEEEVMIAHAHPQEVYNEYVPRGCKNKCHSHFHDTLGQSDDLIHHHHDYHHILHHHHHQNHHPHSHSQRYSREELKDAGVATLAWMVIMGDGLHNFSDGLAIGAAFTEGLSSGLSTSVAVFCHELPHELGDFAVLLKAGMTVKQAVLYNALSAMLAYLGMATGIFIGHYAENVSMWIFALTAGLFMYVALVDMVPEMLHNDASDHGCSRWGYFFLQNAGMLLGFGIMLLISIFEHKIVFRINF
# Protocol details: cell-based or functional assay
The reply should contain only the number, in nM.

| Binder | ADCC reporter EC50 [nM] |
| --- | --- |
| 112H11C12 (antibody, V domains shown, Tested as chimeric antibody; also called 112H1C12) VH: QVQLQQPGAELVRPGASVKLSCKASGYTFTSYWMNWVKQRPGQGLKWIGMIDPSNSKTHYNQMFKDKATLTVDKSSNTAYMQLSSLTSEDSAVYYCARTSTTMATFAYWGQGTLVSVSA VL: DVLMTQTPLSLPVSLGDQASISCRSSQSIVHSNGNTYLEWYLQKPGQSPKLLIYKVSNRFSGVPDRFSGSGSGTDFTLKISRVEAEDLGVYYCFQASHFPLTFGAGTELDLN | 20.5 |
| 5D6B10 (antibody, V domains shown, Tested as chimeric antibody) VH: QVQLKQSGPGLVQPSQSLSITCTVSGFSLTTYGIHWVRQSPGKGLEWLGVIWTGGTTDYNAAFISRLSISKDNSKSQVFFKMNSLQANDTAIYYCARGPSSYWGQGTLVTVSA VL: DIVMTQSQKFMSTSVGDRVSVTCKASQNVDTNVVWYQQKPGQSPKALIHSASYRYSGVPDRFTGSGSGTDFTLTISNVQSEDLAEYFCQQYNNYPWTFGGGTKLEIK | 0.3 |
| 39D10B2 (antibody, V domains shown, Tested as chimeric antibody) VH: QVQLKQSGPGLVQPSQSLSITCTVSGFSLTTYGVHWVRQSPGKGLEWLGVIWTGGTTDYNAAFISRLSISKDNSKSQVFFKMNSLQANDTAMYYCARGPSSYWGQGTLVTVSA VL: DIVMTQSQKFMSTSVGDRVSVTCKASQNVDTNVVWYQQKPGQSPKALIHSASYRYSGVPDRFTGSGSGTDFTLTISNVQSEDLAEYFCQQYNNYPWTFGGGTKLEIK | 0.2 |
| 136F3D10C10 (antibody, V domains shown, Tested as chimeric antibody) VH: QVQLQQSGPELVKPGASVRIFCKASGYTFTSFHIHWVKQRPGQGLEWIGWIYPGNDNTDHNEKFKGKATLSADKSSSTVYMQLSSLTSEDSAVYFCGRSNYYGPLFAYWGQGTLVTVSA VL: DILMTQTPLSLPVSLGDQASISCRSSQNIVRSNGNTYLEWYLQKPGQSPKVLIYRVSNRFSGVPDRFSGSGSGTDFTLKISRVEAEDLGVYYCFQGSYVPYTFGGGTKLEIK | 4.8 |

[Q] Dear colleague, I am looking for the recorded ADCC reporter EC50 of the following binder: 282G5A2 (antibody, V domains shown, Tested as chimeric antibody) VH: QVQLQQSGAELVRPGTSVKVSCKASGYALTKYLIEWIKQRPGQGLEWIGVINPGNAGNNYNEKFKGKATLTVDQSSSTAYMQLSSLTSEDSAVYFCARRGRDYAMDNWGQGTSVTVSS VL: EIVLTQSPAIMSASLGEKVTMSCRASSSINYIYWYQQKSDASPKLWIYYTSNLAPGVPARFSGSGSGNSYSLTISSMEDEDAATYYCQQFTSSPLTFGAGTKLELK
[A] 1.2

Cited source for all entries: patent US20240325555A1
